Data origin: paper PMC7232442

- Tested on: S. Typhimurium SE01 Wild-Type
- experimental_details: MIC determination by microdilution method
- Type: cell-based, Salmonella enterica serovar Typhimurium
- condition_context: Salmonella enterica; S. Typhimurium SE01 wild-type; read-out: MIC
property_measured: MIC
// return the numeric value with its unit appended

Entry N#CCC[Se]C(=O)c1cccc(C(=O)[Se]CC#N)c1 [Se-C2] , MIC reported as 25 µM

Entry N#CC[Se]C(=O)c1ccc(C(=O)[Se]CC#N)cc1 [Se-C1] , MIC reported as 25 µM

Entry CC(=O)C[Se]C(=O)c1cccc(C(=O)[Se]CC(C)=O)c1 [Se-K2] , MIC reported as 50 µM

----------
- Test system: S. aureus MRSA 272123
- experimental_details: MIC determination by microdilution method
- Assay type: cell-based
- condition_context: Staphylococcus aureus; S. aureus MRSA 272123; read-out: MIC
property_measured: MIC (µM)
Numeric answer only, unit µM assumed.

Entry CC(=O)C[Se]C(=O)c1cc(C(=O)[Se]CC(C)=O)cc(C(=O)[Se]CC(C)=O)c1 [Se-K3] , MIC reported as 0.78

Entry COC(=O)C[Se]C(=O)c1cccc(C(=O)[Se]CC(=O)OC)c1 [Se-E2] , MIC reported as 100

Entry CC(=O)C[Se]C(=O)c1cccc(C(=O)[Se]CC(C)=O)c1 [Se-K2] , MIC reported as 1.56

Entry COC(=O)C[Se]C(=O)c1ccc(C(=O)[Se]CC(=O)OC)cc1 [Se-E1] , MIC reported as 100

Entry COC(=O)C[Se]C(=O)c1cc(C(=O)[Se]CC(=O)OC)cc(C(=O)[Se]CC(=O)OC)c1 [Se-E3] , MIC reported as 100

Entry N#CC[Se]C(=O)c1ccc(C(=O)[Se]CC#N)cc1 [Se-C1] , MIC reported as 50

Entry CC(=O)C[Se]C(=O)c1ccc(C(=O)[Se]CC(C)=O)cc1 [Se-K1] , MIC reported as 1.56

Entry N#CCC[Se]C(=O)c1cccc(C(=O)[Se]CC#N)c1 [Se-C2] , MIC reported as 50

----------
- Test system: S. Typhimurium SE01 Wild-Type
- experimental_details: MIC determination by microdilution method
- Format: cell-based, Salmonella enterica serovar Typhimurium
- condition_context: Salmonella enterica; S. Typhimurium SE01 wild-type; read-out: MIC
Provide the recorded MIC for the entries that follow.
Numeric answer only, unit µM assumed.

Entry CC(=O)C[Se]C(=O)c1ccc(C(=O)[Se]CC(C)=O)cc1 , MIC reported as 50

Entry CC(=O)C[Se]C(=O)c1cc(C(=O)[Se]CC(C)=O)cc(C(=O)[Se]CC(C)=O)c1 , MIC reported as 50

----------
Provide the recorded Relative Fluorescence Index (RFI) for the entries that follow.
- Tested on: S. aureus ATCC 25923
- experimental_details: Real-time ethidium bromide accumulation assay
- Assay type: cell-based, Staphylococcus aureus
- Design: key: RFI = (RFtreated − RFuntreated)/RFuntreated at minute 60
- condition_context: S. aureus ATCC 25923; ½ MIC; minute 60
Give a plain numeric answer without units written out.

Value (Relative Fluorescence Index (RFI), S. aureus ATCC 25923) for record N#CC(C#N)=NNc1cccc(Cl)c1 [CCCP, reference compound] = 0.52

Value (Relative Fluorescence Index (RFI), S. aureus ATCC 25923) for record CC(=O)C[Se]C(=O)c1cccc(C(=O)[Se]CC(C)=O)c1 = 0.11

Value (Relative Fluorescence Index (RFI), S. aureus ATCC 25923) for record N#CCC[Se]C(=O)c1cccc(C(=O)[Se]CC#N)c1 = 0.08

Value (Relative Fluorescence Index (RFI), S. aureus ATCC 25923) for record N#CC[Se]C(=O)c1ccc(C(=O)[Se]CC#N)cc1 = 0.14

Value (Relative Fluorescence Index (RFI), S. aureus ATCC 25923) for record COC(=O)C[Se]C(=O)c1cc(C(=O)[Se]CC(=O)OC)cc(C(=O)[Se]CC(=O)OC)c1 = 4.15

Value (Relative Fluorescence Index (RFI), S. aureus ATCC 25923) for record COC(=O)C[Se]C(=O)c1ccc(C(=O)[Se]CC(=O)OC)cc1 [Se-E1] = 0.98

Value (Relative Fluorescence Index (RFI), S. aureus ATCC 25923) for record CC(=O)C[Se]C(=O)c1cc(C(=O)[Se]CC(C)=O)cc(C(=O)[Se]CC(C)=O)c1 = 0.16

Value (Relative Fluorescence Index (RFI), S. aureus ATCC 25923) for record COC(=O)C[Se]C(=O)c1cccc(C(=O)[Se]CC(=O)OC)c1 [Se-E2] = 0.67

Value (Relative Fluorescence Index (RFI), S. aureus ATCC 25923) for record N#CC[Se]C(=O)c1cc(C(=O)[Se]CC#N)cc(C(=O)[Se]CC#N)c1 = 0.18

Value (Relative Fluorescence Index (RFI), S. aureus ATCC 25923) for record CC(=O)C[Se]C(=O)c1ccc(C(=O)[Se]CC(C)=O)cc1 = 0.1

----------
- System: S. Typhimurium SE01 Wild-Type
- experimental_details: Real-time ethidium bromide accumulation assay
- Assay type: cell-based, Salmonella enterica serovar Typhimurium
- condition_context: ½ MIC, minute 60
Provide the recorded Relative Fluorescence Index (RFI) for the entries that follow.
Give a plain numeric answer without units written out.

Entry CC(=O)C[Se]C(=O)c1cc(C(=O)[Se]CC(C)=O)cc(C(=O)[Se]CC(C)=O)c1 , Relative Fluorescence Index (RFI) reported as −0.20

Entry CC(=O)C[Se]C(=O)c1ccc(C(=O)[Se]CC(C)=O)cc1 , Relative Fluorescence Index (RFI) reported as −0.16

Entry N#CC[Se]C(=O)c1cc(C(=O)[Se]CC#N)cc(C(=O)[Se]CC#N)c1 , Relative Fluorescence Index (RFI) reported as −0.07

Entry COC(=O)C[Se]C(=O)c1ccc(C(=O)[Se]CC(=O)OC)cc1 [Se-E1] , Relative Fluorescence Index (RFI) reported as −0.10

Entry N#CC[Se]C(=O)c1ccc(C(=O)[Se]CC#N)cc1 , Relative Fluorescence Index (RFI) reported as −0.08

Entry N#CCC[Se]C(=O)c1cccc(C(=O)[Se]CC#N)c1 , Relative Fluorescence Index (RFI) reported as −0.10

Entry COC(=O)C[Se]C(=O)c1cccc(C(=O)[Se]CC(=O)OC)c1 [Se-E2] , Relative Fluorescence Index (RFI) reported as 0.09

Entry CC(=O)C[Se]C(=O)c1cccc(C(=O)[Se]CC(C)=O)c1 , Relative Fluorescence Index (RFI) reported as −0.04

Entry N#CC(C#N)=NNc1cccc(Cl)c1 [CCCP, reference compound] , Relative Fluorescence Index (RFI) reported as 3.50

Entry COC(=O)C[Se]C(=O)c1cc(C(=O)[Se]CC(=O)OC)cc(C(=O)[Se]CC(=O)OC)c1 , Relative Fluorescence Index (RFI) reported as 0.26

----------
- System: Staphylococcus aureus ATCC 25923
- experimental_details: MIC determination by microdilution method
- Assay type: cell-based
- condition_context: S. aureus ATCC 25923
- Method: The minimum inhibitory concentrations (MICs) of compounds were determined according to the Clinical and Laboratory Standard Institute guidelines (CLSI). MIC values of the compounds were determined by visual inspection. The solvent was also assayed to ensure there was no antibacterial effect and the concentration (1 v/v%) applied in the assays had no antibacterial activity. DMSO was used at subinhibitory concentration (1 v/v%) in the assays.
Provide the recorded MIC for the entries that follow.
// return the numeric value with its unit appended

Entry COC(=O)C[Se]C(=O)c1cc(C(=O)[Se]CC(=O)OC)cc(C(=O)[Se]CC(=O)OC)c1 , MIC reported as 12.5 µM

Entry COC(=O)C[Se]C(=O)c1cccc(C(=O)[Se]CC(=O)OC)c1 [Se-E2] , MIC reported as 12.5 µM

Entry CC(=O)C[Se]C(=O)c1ccc(C(=O)[Se]CC(C)=O)cc1 , MIC reported as 0.39 µM

Entry CC(=O)C[Se]C(=O)c1cccc(C(=O)[Se]CC(C)=O)c1 , MIC reported as 0.39 µM

Entry CC(=O)C[Se]C(=O)c1cc(C(=O)[Se]CC(C)=O)cc(C(=O)[Se]CC(C)=O)c1 , MIC reported as 0.39 µM

Entry COC(=O)C[Se]C(=O)c1ccc(C(=O)[Se]CC(=O)OC)cc1 [Se-E1] , MIC reported as 12.5 µM

----------
- Tested on: S. Typhimurium SE03 ΔacrA
- experimental_details: Real-time ethidium bromide accumulation assay
- Type: cell-based, Salmonella enterica serovar Typhimurium
- condition_context: S. Typhimurium SE03 ΔacrA; ½ MIC; minute 60
- Method: The impact of compounds on EB accumulation was determined by the automated EB method using a CLARIOstar Plus plate reader (BMG Labtech, UK). Firstly, the bacterial strain was incubated until it reached an optical density (OD) of 0.6 at 600 nm. […] Then, the plates were placed into the CLARIOstar plate reader, and the fluorescence was monitored at excitation and emission wavelengths of 530 nm and 600 nm every minute for one hour on a real-time basis. […]
So basically: Relative Fluorescence Index (RFI) at 0.2 or higher? That is MET. Lower than 0.2? That is NOT MET.

Ask | Hi, just wondering whether N#CC[Se]C(=O)c1ccc(C(=O)[Se]CC#N)cc1 shows Relative Fluorescence Index (RFI) of 0.2 or higher.
Reply | NOT MET

Ask | Hi, just wondering whether CC(=O)C[Se]C(=O)c1ccc(C(=O)[Se]CC(C)=O)cc1 shows Relative Fluorescence Index (RFI) of 0.2 or higher.
Reply | NOT MET

Ask | Hi, just wondering whether N#CC(C#N)=NNc1cccc(Cl)c1 [CCCP, reference compound] shows Relative Fluorescence Index (RFI) of 0.2 or higher.
Reply | MET

Ask | Hi, just wondering whether CC(=O)C[Se]C(=O)c1cc(C(=O)[Se]CC(C)=O)cc(C(=O)[Se]CC(C)=O)c1 shows Relative Fluorescence Index (RFI) of 0.2 or higher.
Reply | MET

Ask | Hi, just wondering whether COC(=O)C[Se]C(=O)c1cc(C(=O)[Se]CC(=O)OC)cc(C(=O)[Se]CC(=O)OC)c1 shows Relative Fluorescence Index (RFI) of 0.2 or higher.
Reply | MET

Ask | Hi, just wondering whether COC(=O)C[Se]C(=O)c1cccc(C(=O)[Se]CC(=O)OC)c1 [Se-E2] shows Relative Fluorescence Index (RFI) of 0.2 or higher.
Reply | MET

Ask | Hi, just wondering whether N#CCC[Se]C(=O)c1cccc(C(=O)[Se]CC#N)c1 shows Relative Fluorescence Index (RFI) of 0.2 or higher.
Reply | NOT MET

Ask | Hi, just wondering whether N#CC[Se]C(=O)c1cc(C(=O)[Se]CC#N)cc(C(=O)[Se]CC#N)c1 shows Relative Fluorescence Index (RFI) of 0.2 or higher.
Reply | NOT MET

Ask | Hi, just wondering whether COC(=O)C[Se]C(=O)c1ccc(C(=O)[Se]CC(=O)OC)cc1 [Se-E1] shows Relative Fluorescence Index (RFI) of 0.2 or higher.
Reply | NOT MET
